# protocol: Metabolic stability assay (liver microsomes)
# Format: in vitro ADME
# condition_details: dog liver microsomes, 15 min, mean
Label criterion not met if Percent Remaining (%) 15 min falls below 90%; label criterion met in every other case.

These solved cases illustrate the format of a correct answer.
**Q:** Please indicate if the recorded Percent Remaining (%) 15 min for CCCNC(=O)N[C@H]1CC[C@@H](N(C)c2ncnc3[nH]ccc23)CC1 meets or exceeds 90%.
**A:** criterion not met

**Q:** Quick check: does CN(c1ncnc2[nH]ccc12)[C@H]1CC[C@H](NC(=O)NCC(F)(F)F)CC1 have Percent Remaining (%) 15 min greater than or equal to 90%?
**A:** criterion not met

**Q:** Determine whether measured Percent Remaining (%) 15 min meets or exceeds 90% for CNS(=O)(=O)C[C@H]1CC[C@H](N(C)c2ncnc3[nH]ccc23)CC1 [Oclacitinib, reference compound]
**A:** criterion not met

**Q:** Reported Percent Remaining (%) 15 min reaches at least 90% for CN(c1ncnc2[nH]ccc12)[C@H]1CC[C@H](NC(=O)NCC#N)CC1 ?
**A:** criterion met

# input for lookup
**Q:** # bool: Percent Remaining (%) 15 min of O=C(c1ccc(F)cc1)C1CCN(CCn2c(=O)[nH]c3ccccc3c2=O)CC1 [ketanserin, reference compound] >= 90%
**A:** criterion not met
